The proteins listed here are annotated with their stoichiometry N.
- ASSAY_TARGET: the molecule itself
- PROTOCOL_SUMMARY: SEC-MALS
Answer as a number with no unit attached.

q: Recorded stoichiometry N of CtIP N-terminal domain (CtIP-NTD), human CtIP residues 18-145 (domain or fragment) SDFKDLWTKLKECHDREVQGLQVKVTKLKQERILDAQRLEEFFTKNQQLREQQKVLHETIKVLEDRLRAGLCDRCAVTEEHMRKKQQEFENIRQQNLKLITELMNERNTLQEENKKLSEQLQQKIEND , please.
a: 4

q: Recorded stoichiometry N of CtIP-NTD-DM, C89A C92A double mutant of CtIP residues 18-145 (domain or fragment) SDFKDLWTKLKECHDREVQGLQVKVTKLKQERILDAQRLEEFFTKNQQLREQQKVLHETIKVLEDRLRAGLADRAAVTEEHMRKKQQEFENIRQQNLKLITELMNERNTLQEENKKLSEQLQQKIEND , please.
a: 4

Continue with the next protein.
q: Recorded stoichiometry N of SDFKDLWTKLKECHDREVQGLQVKVTKLKQERILD (domain or fragment) [CtIP-nNTD (residues 18-52) fused to a maltose-binding protein (MBP) tag] , please.
a: 4

Every entry's value here was drawn from paper PMC4564947.
